The reported numbers originate from the Kinase Knowledgebase extract (Sharma et al. 2016).

molecular target: MAPK14 (human) (UniProt Q16539); assay: Inhibition of IL-1 Production in Whole Blood
Sequence (Q16539 whole entry, looked up): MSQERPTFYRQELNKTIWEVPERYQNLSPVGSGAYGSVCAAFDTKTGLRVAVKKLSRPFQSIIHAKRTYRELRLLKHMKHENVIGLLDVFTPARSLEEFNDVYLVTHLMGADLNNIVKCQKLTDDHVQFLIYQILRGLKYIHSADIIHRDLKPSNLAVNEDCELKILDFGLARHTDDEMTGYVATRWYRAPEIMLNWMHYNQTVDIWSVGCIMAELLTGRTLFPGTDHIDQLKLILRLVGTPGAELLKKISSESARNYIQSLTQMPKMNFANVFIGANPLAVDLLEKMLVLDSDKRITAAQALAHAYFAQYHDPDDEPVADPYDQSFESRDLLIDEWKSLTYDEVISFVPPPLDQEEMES
pIC50: −log10 of the molar value.
Readings of pIC50 for the listed molecules

These solved cases illustrate the format of a correct answer.
INSERT INTO measurements (molecule, readout_value) VALUES
  ('NC(=O)C(c1cccc(-c2ccccc2CN2CCNCC2)n1)c1c(Cl)cccc1Cl (stereo not drawn)', '< 6.30'),
  ('Cc1cc(F)ccc1-c1cccc(N(C(N)=O)c2c(Cl)cccc2Cl)n1', '< 6.30');

Moving on to another molecule below.
// recorded pIC50 for Cc1cc(F)ccc1-c1cccc(C(C(N)=O)c2c(Cl)cc(N)cc2Cl)n1 (stereo not drawn) : < 6.30
